// data source = ChEMBL document CHEMBL1131721

Biological target: CaM kinase I alpha (Zea mays, UniProt O04417)
Sequence (O04417 whole entry): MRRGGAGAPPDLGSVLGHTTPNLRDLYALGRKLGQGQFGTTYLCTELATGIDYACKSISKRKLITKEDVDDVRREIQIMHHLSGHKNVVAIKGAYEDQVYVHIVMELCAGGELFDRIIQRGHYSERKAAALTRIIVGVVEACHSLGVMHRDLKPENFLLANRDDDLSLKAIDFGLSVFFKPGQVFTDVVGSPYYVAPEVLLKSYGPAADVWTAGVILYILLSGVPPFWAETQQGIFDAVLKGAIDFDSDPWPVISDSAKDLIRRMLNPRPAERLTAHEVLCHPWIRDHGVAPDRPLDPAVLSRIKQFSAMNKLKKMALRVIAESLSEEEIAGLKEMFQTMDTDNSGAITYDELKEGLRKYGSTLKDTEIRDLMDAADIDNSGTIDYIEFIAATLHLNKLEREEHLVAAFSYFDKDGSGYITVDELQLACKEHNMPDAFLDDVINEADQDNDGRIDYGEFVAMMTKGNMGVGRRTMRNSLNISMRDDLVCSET
Experiment: Inhibition of Calcium-dependent protein kinase 1 (CDPK-1) from maize seedlings
measure: pIC50
Formally, pIC50 is defined as -log10 of the concentration c, with c in mol/L.

Any idea what pIC50 was measured for N=C(N)NCCC[C@H](NC(=O)[C@H](CCCNC(=N)N)NC(=O)[C@H](CCCNC(=N)N)NC(=O)[C@H](CCCNC(=N)N)NC(=O)[C@H](CCCNC(=N)N)NC(=O)[C@H](CCCNC(=N)N)NC(=O)CCCCCCCCCCNC(=O)[C@H]1OC(n2cnc3c(N)ncnc32)[C@H](O)[C@@H]1O)C(=O)O (some centres not stated) ?
5.31

Any idea what pIC50 was measured for N=C(N)NCCC[C@H](NC(=O)[C@H](CCCNC(=N)N)NC(=O)[C@H](CCCNC(=N)N)NC(=O)[C@H](CCCNC(=N)N)NC(=O)[C@H](CCCNC(=N)N)NC(=O)[C@H](CCCNC(=N)N)NC(=O)CCCNC(=O)[C@H]1OC(n2cnc3c(N)ncnc32)[C@H](O)[C@@H]1O)C(=O)O (some centres not stated) ?
4.72

Any idea what pIC50 was measured for N=C(N)NCCC[C@H](NC(=O)[C@H](CCCNC(=N)N)NC(=O)[C@H](CCCNC(=N)N)NC(=O)[C@H](CCCNC(=N)N)NC(=O)[C@H](CCCNC(=N)N)NC(=O)[C@H](CCCNC(=N)N)NC(=O)CCNC(=O)[C@H]1OC(n2cnc3c(N)ncnc32)[C@H](O)[C@@H]1O)C(=O)O (some centres not stated) ?
4.42

Any idea what pIC50 was measured for Nc1ncnc2c1ncn2[C@@H]1O[C@H](CO)[C@@H](O)[C@H]1O [ADENOSINE] ?
3.94

Any idea what pIC50 was measured for N=C(N)NCCC[C@H](NC(=O)[C@H](CCCNC(=N)N)NC(=O)[C@H](CCCNC(=N)N)NC(=O)[C@H](CCCNC(=N)N)NC(=O)[C@H](CCCNC(=N)N)NC(=O)[C@H](CCCNC(=N)N)NC(=O)CCCCCCCNC(=O)[C@H]1OC(n2cnc3c(N)ncnc32)[C@H](O)[C@@H]1O)C(=O)O (some centres not stated) ?
5.49

Any idea what pIC50 was measured for N=C(N)NCCC[C@@H](NC(=O)[C@@H](CCCNC(=N)N)NC(=O)CCCCCNC(=O)[C@H]1OC(n2cnc3c(N)ncnc32)[C@H](O)[C@@H]1O)C(=O)O (some centres not stated) ?
4.46

Any idea what pIC50 was measured for N=C(N)NCCC[C@H](NC(=O)[C@H](CCCNC(=N)N)NC(=O)[C@H](CCCNC(=N)N)NC(=O)[C@H](CCCNC(=N)N)NC(=O)[C@H](CCCNC(=N)N)NC(=O)[C@H](CCCNC(=N)N)NC(=O)CCCCCNC(=O)[C@H]1OC(n2cnc3c(N)ncnc32)[C@H](O)[C@@H]1O)C(=O)O (some centres not stated) ?
5.92

* * *

Experiment: Inhibition of Casein kinase 2 from rat liver
Settings: read-out: IC50
measure: IC50

Any idea what IC50 was measured for N=C(N)NCCC[C@H](NC(=O)[C@H](CCCNC(=N)N)NC(=O)[C@H](CCCNC(=N)N)NC(=O)[C@H](CCCNC(=N)N)NC(=O)[C@H](CCCNC(=N)N)NC(=O)[C@H](CCCNC(=N)N)NC(=O)CCCCCCCNC(=O)[C@H]1OC(n2cnc3c(N)ncnc32)[C@H](O)[C@@H]1O)C(=O)O (stereo partly specified) ?
> 30 µM

Any idea what IC50 was measured for N=C(N)NCCC[C@H](NC(=O)[C@H](CCCNC(=N)N)NC(=O)[C@H](CCCNC(=N)N)NC(=O)[C@H](CCCNC(=N)N)NC(=O)[C@H](CCCNC(=N)N)NC(=O)[C@H](CCCNC(=N)N)NC(=O)CCCCCNC(=O)[C@H]1OC(n2cnc3c(N)ncnc32)[C@H](O)[C@@H]1O)C(=O)O (stereo partly specified) ?
> 30 µM

Any idea what IC50 was measured for N=C(N)NCCC[C@H](NC(=O)[C@H](CCCNC(=N)N)NC(=O)[C@H](CCCNC(=N)N)NC(=O)[C@H](CCCNC(=N)N)NC(=O)[C@H](CCCNC(=N)N)NC(=O)[C@H](CCCNC(=N)N)NC(=O)CNC(=O)[C@H]1OC(n2cnc3c(N)ncnc32)[C@H](O)[C@@H]1O)C(=O)O (stereo partly specified) ?
> 30 µM

Any idea what IC50 was measured for C[C@H](NC(=O)C[C@H](NC(=O)C[C@H](NC(=O)[C@H]1O[C@@H](n2cnc3c(N)ncnc32)[C@H](O)[C@@H]1O)C(=O)O)C(=O)O)C(=O)N[C@@H](CCCNC(=N)N)C(=O)N[C@@H](CCCNC(=N)N)C(=O)N[C@@H](CCCNC(=N)N)C(=O)N[C@@H](CCCNC(=N)N)C(=O)N[C@@H](CCCNC(=N)N)C(=O)N[C@@H](CCCNC(=N)N)C(=O)O ?
> 30 µM

Any idea what IC50 was measured for N=C(N)NCCC[C@H](NC(=O)[C@H](CCCNC(=N)N)NC(=O)[C@H](CCCNC(=N)N)NC(=O)[C@H](CCCNC(=N)N)NC(=O)[C@H](CCCNC(=N)N)NC(=O)[C@H](CCCNC(=N)N)NC(=O)CCCNC(=O)[C@H]1OC(n2cnc3c(N)ncnc32)[C@H](O)[C@@H]1O)C(=O)O (stereo partly specified) ?
> 30 µM

Any idea what IC50 was measured for Nc1ncnc2c1ncn2[C@@H]1O[C@H](CO)[C@@H](O)[C@H]1O ?
> 300 µM
